// reported SPOT intensity per item
Target Or System: T1, Cyk3, Q07533
T1 sequence (Q07533 1-83, looked up): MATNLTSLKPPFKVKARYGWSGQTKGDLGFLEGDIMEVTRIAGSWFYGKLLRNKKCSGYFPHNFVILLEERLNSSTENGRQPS
Protocol Description: SPOT array
Setup Conditions: median of control spots 1451
Measured Endpoint: SPOT intensity

- Binder: "NFKRLLPRDPSEKSS"
  Measured: 3
- Binder: "GAGERPRLVPRPINV"
  Measured: 3
- Binder: "KLSRGRYGLPLSSRP"
  Measured: 0
- Binder: "VATSTSPKLPPRGKQ"
  Measured: 1
- Binder: "VTHRLRISIPGITGR"
  Measured: 0
- Binder: "GLRRARYKFPGQQKI"
  Measured: 0
- Binder: "FYNRTAFQLPGDARV"
  Measured: 0
- Binder: "LKHGWKPLRPIKLIS"
  Measured: 0
- Binder: "IAPIPMPKPNPTHIS"
  Measured: 1
- Binder: "YYNRQELALPKRMSS"
  Measured: 3
- Binder: "VFQFQMPTTPISTKM"
  Measured: 0
- Binder: "EQEEIAPSLPSRNSI"
  Measured: 1
- Binder: "TPTSGPPLLPPRNTM"
  Measured: 1
- Binder: "DGNEEKPLLPTRPNK"
  Measured: 0
- Binder: "VKPRQLFPIPLNKVD"
  Measured: 0
